Origin of measurements: ChEMBL document CHEMBL3108765

- assay-system: UniProtKB P46952
- Sequence (whole entry): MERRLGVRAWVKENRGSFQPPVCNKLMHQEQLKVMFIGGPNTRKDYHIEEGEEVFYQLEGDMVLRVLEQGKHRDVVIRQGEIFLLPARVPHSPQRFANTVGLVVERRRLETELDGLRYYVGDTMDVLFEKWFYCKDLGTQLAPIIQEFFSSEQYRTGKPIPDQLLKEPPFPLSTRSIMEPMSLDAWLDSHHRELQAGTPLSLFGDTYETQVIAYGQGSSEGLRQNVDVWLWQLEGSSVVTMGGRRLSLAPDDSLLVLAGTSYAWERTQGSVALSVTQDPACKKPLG
- assay-summary: Inhibition of 3-HAO in human brain homogenates using [1-14C]-3-HANA as substrate assessed as [14C]-QUIN production at 10 uM after 1 hr by liquid scintillation spectrometric analysis relative to control
- Assay type: tissue-based
Response key: t means inhibition >= 20%; f means inhibition < 20%.

Consider the worked cases shown below.
INSERT INTO assay_data (compound_structure_string, classification) VALUES
  ('O=C(O)c1ccc(Cl)[n+]([O-])c1', 'f'),
  ('Cc1ccc(C(=O)O)c(N)[n+]1[O-]', 't');

Hi team, for CCc1cc(C)[n+]([O-])c(N)c1C(=O)O , is the recorded inhibition at or above 20%? f

Determine whether this molecule has inhibition no lower than 20%: Nc1c(C(=O)O)cc(Br)c[n+]1[O-] t

Hello, I need to know if Cc1cc(C(=O)O)c(N)[n+]([O-])c1 has measured inhibition not below 20%. Thanks! f
